# Substrate: BHET
# assayProtocol: Proxy for plastic degradation [Released monomer concentration (HPLC/LC-MS) (MHET+TPA)]
# conditionParameters: pH 7.5
endpointName: Proxy for plastic degradation

| protein | result |
| --- | --- |
| unnamed (protein) MNFPRASRLMQAAVLGGLMAVSAAATAQTNPYARGPNPTAASLEASAGPFTVRSFTVSRPSGYGAGTVYYPTNAGGTVGAIAIVPGYTARQSSIKWWGPRLASHGFVVITIDTNSTLDQPSSRSSQQMAALRQVASLNGTSSSPIYGKVDTARMGVMGWSMGGGGSLISAANNPSLKAAAPQAPWDSSTNFSSVTVPTLIFACENDSIAPVNSSALPIYDSMSRNAKQFLEINGGSASCANSGNSNQALIGKKGVAWMKRFMDNDTRYSTFACENPNSTRVSDFRTANCS | 0.03 µM |
| unnamed (protein) NPYARGPNPTAASLEASAGPFTVRSFTVSRPSGYGAGTVYYPTNAGGTVGAIAIVPGFTARQSSIKWWGPRLASHGFVVITIDTNSTLDQPSSRSSQQMAALRQVASLNGTSSSPIYGKVDTARMGVMGWSMGGGGSLISAANNPSLKAAAPQAPWDSSTNFSSVTVPTLIFACENDSIAPVNSSALPIYDSMSRNAKQFLEINGGSHSCANSGNSNQALIGKKGVAWMKRFMDNDTRYSTFACENPNSTRVSDFRTANCS | 0.54 µM |
| unnamed (protein) NPYARGPNPTAASLEASAGPFTVRSFTVSRPSGYGAGTVYYPTNAGGTVGAIAIVPGYTARQSSIKWLGPRLASHGFVVITIDTNSTLDQPSSRSSQQMAALRQVASLNGTSSSPIYGKVDTARMGVMGWSMGGGGSLISAANNPSLKAAAPQAPWDSSTNFSSVTVPTLIFACENDSIAPVNSSALPIYDSMSRNAKQFLEINGGSHSCANSGNSNQALIGKKGVAWMKRFMDNDTRYSTFACENPNSTRVSDFRTANCS | 0.18 µM |
